The values you see were collected from ChEMBL document CHEMBL4118255.

System: Staphylococcus aureus
Test: Antibacterial activity against erythromycin-susceptible Staphylococcus aureus ATCC 25923 after 24 hrs by […]
Type: functional
Conditions: ATCC 25923, 24 h
measure: MIC (µg/mL)
Dear colleague, please return just the value in µg/mL, with no unit written.

Example results:
# compound_smiles, reported_value
measured = [
    ("CC[C@H]1OC(=O)[C@H](C)[C@@H](OC(=O)Cc2cccnc2)[C@H](C)[C@@H](O[C@@H]2O[C@H](C)C[C@H](N(C)C)[C@H]2O)[C@](C)(OC)C[C@@H](C)C(=O)[C@H](C)[C@@H](OC(=O)NCCNC(=O)c2cc([N+](=O)[O-])cc([N+](=O)[O-])c2)[C@]1(C)O", 1),
    ("CC[C@H]1OC(=O)[C@H](C)C(=O)[C@H](C)[C@@H](O[C@@H]2O[C@H](C)C[C@H](N(C)C)[C@H]2O)[C@](C)(OC)C[C@@H](C)C(=O)[C@H](C)[C@@H](OC(=O)NCCNC(=O)C#Cc2ccc(F)cc2)[C@]1(C)O", 16),
    ("CC[C@H]1OC(=O)[C@H](C)C(=O)[C@H](C)[C@@H](O[C@@H]2O[C@H](C)C[C@H](N(C)C)[C@H]2O)[C@](C)(OC)C[C@@H](C)C(=O)[C@H](C)[C@@H](OC(=O)NCCNC(=O)C#Cc2ccc(C)cc2)[C@]1(C)O", 8),
    ("CC[C@H]1OC(=O)[C@H](C)[C@@H](OC(=O)Cc2cccnc2)[C@H](C)[C@@H](O[C@@H]2O[C@H](C)C[C@H](N(C)C)[C@H]2O)[C@](C)(OC)C[C@@H](C)C(=O)[C@H](C)[C@@H](OC(=O)NCCNC(=O)C#Cc2ccc(C)cc2)[C@]1(C)O", 8),
]

Here is another compound to look at.
get_value(item= `CC[C@H]1OC(=O)[C@H](C)C(=O)[C@H](C)[C@@H](O[C@@H]2O[C@H](C)C[C@H](N(C)C)[C@H]2O)[C@](C)(OC)C[C@@H](C)C(=O)[C@H](C)[C@@H](OC(=O)NCCNC(=O)C#Cc2ccccc2Cl)[C@]1(C)O` , readout=MIC) returns 16

* * *

Test system: Streptococcus pneumoniae
Test: Antibacterial activity against erythromycin-resistant Streptococcus pneumoniae A22072 harboring mefA gene after 24 hrs by […]
Type: functional
Settings: A22072, 24 h
hey, just use fulfilled if measured MIC is less than 1 µg/mL, otherwise not fulfilled

Please review the entries below; each comes with its answer.
# molecule, experimental_system, discrete_label
measured = [
    ("CC[C@H]1OC(=O)[C@H](C)[C@@H](O[C@H]2C[C@@](C)(OC)[C@@H](O)[C@H](C)O2)[C@H](C)[C@@H](O[C@@H]2O[C@H](C)C[C@H](N(C)C)[C@H]2O)[C@](C)(O)C[C@@H](C)CN(C)[C@H](C)[C@@H](O)[C@]1(C)O [AZITHROMYCIN]", "Streptococcus pneumoniae", "not fulfilled"),
    ("CC[C@H]1OC(=O)[C@H](C)[C@@H](OC(=O)Cc2cccnc2)[C@H](C)[C@@H](O[C@@H]2O[C@H](C)C[C@H](N(C)C)[C@H]2O)[C@](C)(OC)C[C@@H](C)C(=O)[C@H](C)[C@@H](OC(=O)NCCNC(=O)c2ccc([N+](=O)[O-])cc2)[C@]1(C)O", "Streptococcus pneumoniae", "fulfilled"),
    ("CC[C@H]1OC(=O)[C@H](C)[C@@H](O[C@H]2C[C@@](C)(OC)[C@@H](O)[C@H](C)O2)[C@H](C)[C@@H](O[C@@H]2O[C@H](C)C[C@H](N(C)C)[C@H]2O)[C@](C)(OC)C[C@@H](C)C(=O)[C@H](C)[C@@H](O)[C@]1(C)O [CLARITHROMYCIN]", "Streptococcus pneumoniae", "not fulfilled"),
]

Consider now this further molecule.
Q. Please check: MIC for `CC[C@H]1OC(=O)[C@H](C)C(=O)[C@H](C)[C@@H](O[C@@H]2O[C@H](C)C[C@H](N(C)C)[C@H]2O)[C@](C)(OC)C[C@@H](C)C(=O)/C(C)=C/[C@]1(C)O` , strictly under 1 µg/mL or not?
A. not fulfilled

* * *

Listing: MIC of selected compounds
Test system: Streptococcus pneumoniae
Experiment: Antibacterial activity against erythromycin-resistant Streptococcus pneumoniae A22072 harboring mefA gene after 24 hrs by […]
Type: functional
Details: A22072, 24 h
Dear colleague, please return just the value in µg/mL, with no unit written.

# compound_smiles, reported_value
measured = [
    ("CC[C@H]1OC(=O)[C@H](C)[C@@H](OC(=O)Cc2cccnc2)[C@H](C)[C@@H](O[C@@H]2O[C@H](C)C[C@H](N(C)C)[C@H]2O)[C@](C)(OC)C[C@@H](C)C(=O)[C@H](C)[C@@H](OC(=O)NCCNC(=O)/C=C/c2ccco2)[C@]1(C)O", 1),
    ("CC[C@H]1OC(=O)[C@H](C)[C@@H](OC(=O)Cc2cccnc2)[C@H](C)[C@@H](O[C@@H]2O[C@H](C)C[C@H](N(C)C)[C@H]2O)[C@](C)(OC)C[C@@H](C)C(=O)[C@H](C)[C@@H](OC(=O)NCCNC(=O)C#Cc2cccc3ccccc23)[C@]1(C)O", 1),
    ("CC[C@H]1OC(=O)[C@H](C)C(=O)[C@H](C)[C@@H](O[C@@H]2O[C@H](C)C[C@H](N(C)C)[C@H]2O)[C@](C)(OC)C[C@@H](C)C(=O)[C@H](C)[C@@H](OC(=O)NCCNC(=O)C#Cc2ccc(Br)cc2)[C@]1(C)O", 2),
    ("CC[C@H]1OC(=O)[C@H](C)C(=O)[C@H](C)[C@@H](O[C@@H]2O[C@H](C)C[C@H](N(C)C)[C@H]2O)[C@](C)(OC)C[C@@H](C)C(=O)[C@H](C)[C@@H](OC(=O)NCCNC(=O)C#Cc2ccccc2Cl)[C@]1(C)O", 2),
    ("CC[C@H]1OC(=O)[C@H](C)C(=O)[C@H](C)[C@@H](O[C@@H]2O[C@H](C)C[C@H](N(C)C)[C@H]2O)[C@](C)(OC)C[C@@H](C)C(=O)[C@H](C)[C@@H](OC(=O)NCCNC(=O)C#Cc2ccc(C)cc2)[C@]1(C)O", 0.5),
    ("CC[C@H]1OC(=O)[C@H](C)C(=O)[C@H](C)[C@@H](O[C@@H]2O[C@H](C)C[C@H](N(C)C)[C@H]2O)[C@](C)(OC)C[C@@H](C)C(=O)[C@H](C)[C@@H](OC(=O)NCCNC(=O)C#Cc2ccc(Cl)cc2)[C@]1(C)O", 2),
]

get_value(item= `CC[C@H]1OC(=O)[C@H](C)[C@@H](OC(=O)Cc2cccnc2)[C@H](C)[C@@H](O[C@@H]2O[C@H](C)C[C@H](N(C)C)[C@H]2O)[C@](C)(OC)C[C@@H](C)C(=O)[C@H](C)[C@@H](OC(=O)NCCNC(=O)c2cc([N+](=O)[O-])cc([N+](=O)[O-])c2)[C@]1(C)O` , readout=MIC) returns 0.5

get_value(item= `CC[C@H]1OC(=O)[C@H](C)[C@@H](OC(=O)Cc2cccnc2)[C@H](C)[C@@H](O[C@@H]2O[C@H](C)C[C@H](N(C)C)[C@H]2O)[C@](C)(OC)C[C@@H](C)C(=O)[C@H](C)[C@@H](OC(=O)NCCNC(=O)c2ccc([N+](=O)[O-])cc2N)[C@]1(C)O` , readout=MIC) returns 0.25

* * *

Test system: Staphylococcus aureus
Assay: Antibacterial activity against erythromycin-susceptible Staphylococcus aureus ATCC 25923 after 24 hrs by […]
Type: functional
Conditions: ATCC 25923, 24 h
measure: MIC (µg/mL)
Dear colleague, please return just the value in µg/mL, with no unit written.

# molecule, MIC / µg/mL
measured = [
    ("CC[C@H]1OC(=O)[C@H](C)[C@@H](OC(=O)Cc2cccnc2)[C@H](C)[C@@H](O[C@@H]2O[C@H](C)C[C@H](N(C)C)[C@H]2O)[C@](C)(OC)C[C@@H](C)C(=O)[C@H](C)[C@@H](OC(=O)NCCNC(=O)/C=C/c2ccco2)[C@]1(C)O", 16),
    ("CC[C@H]1OC(=O)[C@H](C)C(=O)[C@H](C)[C@@H](O[C@@H]2O[C@H](C)C[C@H](N(C)C)[C@H]2O)[C@](C)(OC)C[C@@H](C)C(=O)[C@H](C)[C@@H](OC(=O)NCCNC(=O)C#Cc2ccc(Cl)cc2Cl)[C@]1(C)O", 16),
]

get_value(item= `CC[C@H]1OC(=O)[C@H](C)[C@@H](OC(=O)Cc2cccnc2)[C@H](C)[C@@H](O[C@@H]2O[C@H](C)C[C@H](N(C)C)[C@H]2O)[C@](C)(OC)C[C@@H](C)C(=O)/C(C)=C/[C@]1(C)O` , readout=MIC) returns 1

get_value(item= `CC[C@H]1OC(=O)[C@H](C)C(=O)[C@H](C)[C@@H](O[C@@H]2O[C@H](C)C[C@H](N(C)C)[C@H]2O)[C@](C)(OC)C[C@@H](C)C(=O)[C@H](C)[C@@H](OC(=O)NCCNC(=O)C#Cc2cccc3ccccc23)[C@]1(C)O` , readout=MIC) returns 16

get_value(item= `CC[C@H]1OC(=O)[C@H](C)[C@@H](OC(=O)Cc2cccnc2)[C@H](C)[C@@H](O[C@@H]2O[C@H](C)C[C@H](N(C)C)[C@H]2O)[C@](C)(OC)C[C@@H](C)C(=O)[C@H](C)[C@@H](OC(=O)NCCNC(=O)C#Cc2cccc3ccccc23)[C@]1(C)O` , readout=MIC) returns 4

get_value(item= CC[C@H]1OC(=O)[C@H](C)[C@@H](O[C@H]2C[C@@](C)(OC)[C@@H](O)[C@H](C)O2)[C@H](C)[C@@H](O[C@@H]2O[C@H](C)C[C@H](N(C)C)[C@H]2O)[C@](C)(OC)C[C@@H](C)C(=O)[C@H](C)[C@@H](O)[C@]1(C)O [CLARITHROMYCIN] , readout=MIC) returns 0.25

get_value(item= `CC[C@H]1OC(=O)[C@H](C)C(=O)[C@H](C)[C@@H](O[C@@H]2O[C@H](C)C[C@H](N(C)C)[C@H]2O)[C@](C)(OC)C[C@@H](C)C(=O)[C@H](C)[C@@H](OC(=O)NCCNC(=O)C#Cc2ccc(Br)cc2)[C@]1(C)O` , readout=MIC) returns 8

get_value(item= `CC[C@H]1OC(=O)[C@H](C)C(=O)[C@H](C)[C@@H](O[C@@H]2O[C@H](C)C[C@H](N(C)C)[C@H]2O)[C@](C)(OC)C[C@@H](C)C(=O)[C@H](C)[C@@H](OC(=O)NCCNC(=O)C#Cc2ccccc2)[C@]1(C)O` , readout=MIC) returns 32

get_value(item= `CC[C@H]1OC(=O)[C@H](C)C(=O)[C@H](C)[C@@H](O[C@@H]2O[C@H](C)C[C@H](N(C)C)[C@H]2O)[C@](C)(OC)C[C@@H](C)C(=O)[C@H](C)[C@@H](OC(=O)NCCNC(=O)C#Cc2ccc(Cl)cc2)[C@]1(C)O` , readout=MIC) returns 8

get_value(item= CC[C@H]1OC(=O)[C@H](C)[C@@H](O[C@H]2C[C@@](C)(OC)[C@@H](O)[C@H](C)O2)[C@H](C)[C@@H](O[C@@H]2O[C@H](C)C[C@H](N(C)C)[C@H]2O)[C@](C)(O)C[C@@H](C)CN(C)[C@H](C)[C@@H](O)[C@]1(C)O [AZITHROMYCIN] , readout=MIC) returns 0.25

get_value(item= `CC[C@H]1OC(=O)[C@H](C)[C@@H](OC(=O)Cc2cccnc2)[C@H](C)[C@@H](O[C@@H]2O[C@H](C)C[C@H](N(C)C)[C@H]2O)[C@](C)(OC)C[C@@H](C)C(=O)[C@H](C)[C@@H](OC(=O)NCCNC(=O)/C=C/c2ccc([N+](=O)[O-])cc2)[C@]1(C)O` , readout=MIC) returns 8
